# maps each entry to its apparent Kd
Tested on: MS2 coat protein
Assay Method Text: apparent Kd, MS2 coat protein; higher = weaker binding; RNA-MaP array; FMN 200 µM where present
Cond: ligand present: flavin mononucleotide; designed as: ON switch for flavin mononucleotide
Express the result in nM but write the number alone.

These recorded examples may help you get a feel for the data.
GCGAUUUUGUAAGGAUAUACACGAGUUUUAAGUGUAGAAGGUACUUACAUGAGGAUCACCCAUGUAUAAAUGUAUAAUAGUCGC    7.51
AAACACAAACAUGAGGAUCACCCAUGUGGCGAAAGCCUUGGGAGAAGGGCGAUUGCAAAGCAAUCGCAGGAUAUUCGUAUUGUG    26.9
GUGUACAUCGGAGGAUAUCAUGUAAAUACAUGAGGAUCACCCAUGUCGAUGGAGACAUCGGAGAUUGAGAAGGCCGAUGUACCG    9.35
GUGCCUUGGGAGAAGGUUAUGUGCAAAGCAUUUAAAGGAUAUUCAUACCGGAAACGGACAUGAGGAUCACCCAUGUGGCACAAA    150
CAUCUCCCUUUUACAUGAGGAUCACCCAUGUUUUCAUAUUGAGAGGAUAUCGUAUUUGGAAACAUCGAGAAGGCUCAUUUGUAU    175

q: Which apparent Kd value belongs to CGCAAGUAUACAUGAGGAUCACCCAUGUCAGAUAGGGUAAUCAGAAGGUACAAUUAGAGAUAGAGUAAGGAUAUGAAAUUUGCG ?
a: 314

q: Another: UUUGCAUUCCGAGGAUAUUCAGAUAAUAACUACACAUGAGGAUCACCCAUGUGGCGAUAGCCUAGGGAGAAGGCGGUUUGCUUU
a: 20.9

Each recorded value in this set is attributed to the EternaBench riboswitch data.
